We begin with a simple list: items and their reported inhibition at 1 µM.
Species: Mus musculus
Assay: Inhibition of nitric oxide production in LPS-activated mouse macrophages at a concentration of 1 uM
Assay type: functional
Please reply with the bare figure in % and do not write the unit itself.

The cases that follow already have their inhibition at 1 µM on record.
Problem: GET /values?readout=inhibition at 1 µM&item= C[C@@H]1CC([C@H]2OC2(C)C)OC2C[C@@]3(C)C(=C21)CCC1[C@@]2(C)CCC(=O)C(C)(C)C2CC[C@@]13C (stereo partly specified)
Result: -5.1

Problem: State the recorded inhibition at 1 µM for this entry: CC(C)C1=CC2C(CC[C@]2(C)O)/C(=C/S(=O)(=O)O)CC1 (stereo partly specified)
Result: 8.4

Problem: Data request, read-out inhibition at 1 µM, for CC(C)C1=CC2C(CC[C@]2(C)O)[C@](C)(O)CC1 (stereo partly specified)
Result: -2.5

Problem: # query: inhibition at 1 µM of entry CC(=O)O[C@@H](C[C@@H](C)[C@]12O[C@H]1C[C@@]1(C)C2=CC(=O)C2[C@@]3(C)CCC(=O)C(C)(C)C3CC[C@@]21C)[C@H]1OC1(C)C (stereo partly specified)
Result: 9.9

Problem: Please give the measured inhibition at 1 µM for this compound: `CNC(=N)NCCC[C@H](N)C(=O)O`
Result: 4.4

Continuing:
Problem: // inhibition at 1 µM lookup, key: C=C1CC[C@@]2(C(C)C)O[C@H]2C2C1CC[C@]2(C)O (stereo partly specified)
Result: 0.9

Problem: Consider the compound shown here: CC(=O)O[C@@H](C[C@@H](C)C1=C2C[C@@H]3OC(=O)C[C@@]4(C)C(C(C)(C)C(=O)O)CC[C@@](C)(C34)[C@@]2(C)CC1)[C@H]1OC1(C)C (stereo partly specified) What is its recorded inhibition at 1 µM?
Result: 10.3

Problem: // inhibition at 1 µM lookup, key: C[C@H](C[C@H](O)[C@H]1OC1(C)C)C1=C2C[C@H](O)C3[C@@]4(C)CCC(=O)C(C)(C)C4CC[C@]3(C)[C@@]2(C)CC1 (stereo partly specified)
Result: 13.2

---

Species: Mus musculus
Assay: Inhibition of nitric oxide production in LPS-activated mouse macrophages at a concentration of 100 uM
Format: functional
PROPERTY_MEASURED: inhibition at 100 µM (%)
API: value field is a number in %; no unit string.

Problem: Recorded inhibition at 100 µM for CC(C)C1=CC2C(CC[C@]2(C)O)[C@](C)(O)CC1 (some centres undefined) , please?
Result: 33.1

Problem: inhibition at 100 µM lookup needed for CC(C)C1=CC2C(CC[C@]2(C)O)[C@@](O)(CO)CC1 (some centres undefined) , thanks.
Result: 64.1

Problem: I would be grateful if you could share the reported inhibition at 100 µM for CC(=O)O[C@@H](C[C@@H](C)C1=C2C[C@H](O)C3[C@@]4(C)CCC(=O)C(C)(C)C4CC[C@]3(C)[C@@]2(C)CC1=O)[C@H]1OC1(C)C (some centres undefined) .
Result: 67.3

Next item in the queue.
Problem: Could you share which inhibition at 100 µM value was measured for CC(=O)O[C@H]([C@@H](O)C[C@@H](C)C1=C2C[C@H](O)C3[C@@]4(C)CCC(=O)C(C)(C)C4CC[C@]3(C)[C@@]2(C)CC1)C(C)(C)O (some centres undefined) ?
Result: 112

---

Organism: Mus musculus
Assay: Inhibition of nitric oxide production in LPS-activated mouse macrophages at a concentration of 3 uM
Assay type: functional
Please mark criterion met if the recorded inhibition at 3 µM is equal to or greater than 20%, and criterion not met if it falls below.

Reference set (3 entries):
Problem: Is it the case that CC(C)[C@]12CC[C@](C)(O1)C1CC[C@](C)(S(=O)(=O)O)C1[C@@H]2O (some centres undefined) has inhibition at 3 µM reaching or exceeding 20%?
Result: criterion not met

Problem: Is reported inhibition at 3 µM greater than or equal to 20% here: COC(=O)C(C)(C)C1CC[C@@]2(C)C3[C@H](CC4=C([C@H](C)C[C@H](OC(C)=O)[C@H]5OC5(C)C)CC[C@@]42C)OC(=O)C[C@@]13C (some centres undefined)
Result: criterion not met

Problem: Could you verify whether the entry O=C(/C=C/c1ccc(O)c(O)c1)OCCc1ccccc1 [CAFFEIC ACID PHENETHYL ESTER] shows inhibition at 3 µM of no less than 20%?
Result: criterion met

Next:
Problem: In plain terms: is recorded inhibition at 3 µM at least 20% for CC(C)C1=CC2C(CC[C@]2(C)O)[C@@](O)(CO)CC1 (some centres undefined) ?
Result: criterion not met

Problem: Is the recorded value of inhibition at 3 µM equal to or greater than 20% for this compound? CC(C)C1=CC2C(CC[C@]2(C)O)[C@@](O)(CS(=O)(=O)O)CC1 (some centres undefined)
Result: criterion not met

Problem: Check this compound for inhibition at 3 µM at or above 20%: C[C@H](C[C@H](O)[C@H]1OC1(C)C)C1=C2C[C@H](O)C3[C@@]4(C)CCC(=O)C(C)(C)C4CC[C@]3(C)[C@@]2(C)CC1 (some centres undefined)
Result: criterion met

Problem: Quick check: does C[C@H](C[C@H](O)[C@H](O)C(C)(C)O)C1=C2C[C@H](O)C3[C@@]4(C)CCC(=O)C(C)(C)C4CC[C@]3(C)[C@@]2(C)CC1 (some centres undefined) have inhibition at 3 µM greater than or equal to 20%?
Result: criterion met

Problem: Please tell me: is the compound N=C(N)NCCSSCCNC(=N)N [GUANIDINOETHYLDISULFIDE] at or over 20% in terms of inhibition at 3 µM?
Result: criterion met

Problem: Determine whether measured inhibition at 3 µM meets or exceeds 20% for CC(=O)O[C@@H](C[C@@H](C)C1=C2C[C@@H]3OC(=O)C[C@@]4(C)C(C(C)(C)C(=O)O)CC[C@@](C)(C34)[C@@]2(C)CC1)[C@H]1OC1(C)C (some centres undefined)
Result: criterion met

Problem: For this compound, is measured inhibition at 3 µM 20% or higher? C[C@@H]1CC([C@H]2OC2(C)C)OC2C[C@@]3(C)C(=C21)CCC1[C@@]2(C)CCC(=O)C(C)(C)C2CC[C@@]13C (some centres undefined)
Result: criterion met

Problem: Would you say C=C(C)[C@H](O)[C@@H](O)C[C@@H](C)C1=C2C[C@H](O)C3[C@@]4(C)CCC(=O)C(C)(C)C4CC[C@]3(C)[C@@]2(C)CC1 (some centres undefined) shows inhibition at 3 µM at minimum 20%?
Result: criterion met

Problem: Quick check, inhibition at 3 µM >= 20%? C[C@H](C[C@H](O)[C@@H](O)C(C)(C)O)C1=C2C[C@H](O)C3[C@@]4(C)CCC(=O)C(C)(C)C4CC[C@]3(C)[C@@]2(C)CC1 (some centres undefined)
Result: criterion met

Problem: Does inhibition at 3 µM meet or surpass 20% for CC(=O)O[C@@H](C[C@@H](C)[C@]12O[C@H]1C[C@@]1(C)C2=CC(=O)C2[C@@]3(C)CCC(=O)C(C)(C)C3CC[C@@]21C)[C@H]1OC1(C)C (some centres undefined) ?
Result: criterion not met

Problem: Check the entry CC(=O)O[C@@H](C[C@@H](C)C1=C2[C@H](O)[C@H](O)C3[C@@]4(C)CCC(=O)C(C)(C)C4CC[C@]3(C)[C@@]2(C)CC1=O)[C@H]1OC1(C)C (some centres undefined) : does inhibition at 3 µM equal or exceed 20%?
Result: criterion met

---

Species: Mus musculus
Assay: Inhibition of nitric oxide production in LPS-activated mouse macrophages at a concentration of 100 uM
Format: functional
Rule: inhibition at 100 µM under 90% gives not met, otherwise met.

See these solved cases before continuing.
Problem: Does inhibition at 100 µM meet or surpass 90% for C[C@H](C[C@H](O)[C@H](O)C(C)(C)O)C1=C2C[C@H](O)C3[C@@]4(C)CCC(=O)C(C)(C)C4CC[C@]3(C)[C@@]2(C)CC1 (some centres not stated) ?
Result: met

Problem: For this compound, is measured inhibition at 100 µM 90% or higher? CC(=O)O[C@@H](C[C@@H](C)C(=O)CC[C@@]1(C)C(=O)C=CC2[C@@]3(C)CCC(=O)C(C)(C)C3CC[C@@]21C)[C@H]1OC1(C)C (some centres not stated)
Result: met

Problem: Dear colleague, could you confirm whether `CNC(=N)NCCC[C@H](N)C(=O)O` has inhibition at 100 µM at or above 90%?
Result: not met

Problem: hey, is inhibition at 100 µM for this one >= 90%? C=C1CCC(C(C)C)=CC2C1CC[C@]2(C)O (some centres not stated)
Result: met

Problem: Has CC(=O)O[C@@H](C[C@@H](C)C1=C2C[C@H](O)C3[C@@]4(C)CCC(=O)C(C)(C)C4CC[C@]3(C)[C@@]2(C)CC1)[C@H](O)C(C)(C)O (some centres not stated) a recorded inhibition at 100 µM greater than or equal to 90%?
Result: met

Problem: Please indicate if the recorded inhibition at 100 µM for C=C(C)[C@H](O)[C@@H](O)C[C@@H](C)C1=C2C[C@H](O)C3[C@@]4(C)CCC(=O)C(C)(C)C4CC[C@]3(C)[C@@]2(C)CC1 (some centres not stated) meets or exceeds 90%.
Result: met

Next:
Problem: Say whether C[C@@H]1CC([C@@H](O)C(C)(C)O)OC2C[C@@]3(C)C(=C21)C[C@H](O)C1[C@@]2(C)CCC(=O)C(C)(C)C2CC[C@@]13C (some centres not stated) shows inhibition at 100 µM of 90% or more.
Result: met

Problem: Hi team, for CC(C)C1=CC2C(CC[C@]2(C)O)[C@@](O)(CS(=O)(=O)O)CC1 (some centres not stated) , is the recorded inhibition at 100 µM at or above 90%?
Result: not met

Problem: Item `O=C(/C=C/c1ccc(O)c(O)c1)OCCc1ccccc1` with inhibition at 100 µM of 90% or above?
Result: met

Problem: Is the recorded value of inhibition at 100 µM equal to or greater than 90% for this compound? N=C(N)NCCSSCCNC(=N)N [GUANIDINOETHYLDISULFIDE]
Result: met

Problem: Could you please find out whether C[C@H](CC(=O)CC(C)(C)O)C1=C2CCC3[C@@]4(C)CCC(=O)C(C)(C)C4CC[C@]3(C)[C@@]2(C)CC1=O (some centres not stated) has inhibition at 100 µM that meets 90% or exceeds it?
Result: met

Problem: Please indicate if the recorded inhibition at 100 µM for C=C1CC[C@@]2(C(C)C)O[C@H]2C2C1CC[C@]2(C)O (some centres not stated) meets or exceeds 90%.
Result: not met

Problem: API: above_or_equal(metric=inhibition at 100 µM, cutoff=90%) for item CC(=O)O[C@@H](C[C@@H](C)[C@]12O[C@H]1C[C@@]1(C)C2=CC(=O)C2[C@@]3(C)CCC(=O)C(C)(C)C3CC[C@@]21C)[C@H]1OC1(C)C (some centres not stated)
Result: met

Problem: Is inhibition at 100 µM at least 90%? Consider C[C@H](C[C@H](O)[C@H]1OC1(C)C)C1=C2C[C@H](O)C3[C@@]4(C)CCC(=O)C(C)(C)C4CC[C@]3(C)[C@@]2(C)CC1 (some centres not stated)
Result: met

Problem: Can C[C@H](C[C@H](O)[C@@H](O)C(C)(C)O)C1=C2C[C@H](O)C3[C@@]4(C)CCC(=O)C(C)(C)C4CC[C@]3(C)[C@@]2(C)CC1 (some centres not stated) be said to have inhibition at 100 µM at or above 90%?
Result: met

Problem: Quick check: does COC(=O)C(C)(C)C1CC[C@@]2(C)C3[C@H](CC4=C([C@H](C)C[C@H](OC(C)=O)[C@H]5OC5(C)C)CC[C@@]42C)OC(=O)C[C@@]13C (some centres not stated) have inhibition at 100 µM greater than or equal to 90%?
Result: met

Problem: Determine whether this compound has inhibition at 100 µM no lower than 90%: C[C@@H]1CC([C@H]2OC2(C)C)OC2C[C@@]3(C)C(=C21)CCC1[C@@]2(C)CCC(=O)C(C)(C)C2CC[C@@]13C (some centres not stated)
Result: met

Problem: For this compound, is measured inhibition at 100 µM 90% or higher? CC(=O)O[C@@H](C[C@@H](C)C1=C2[C@H](O)[C@H](O)C3[C@@]4(C)CCC(=O)C(C)(C)C4CC[C@]3(C)[C@@]2(C)CC1)[C@H]1OC1(C)C (some centres not stated)
Result: met

Problem: Hello, I need to know if CC(C)C1=CC2C(CC[C@]2(C)O)/C(=C/S(=O)(=O)O)CC1 (some centres not stated) has measured inhibition at 100 µM not below 90%. Thanks!
Result: not met

Problem: Could you please find out whether `C=C1/C=C/[C@H](C(C)C)CC/C(C)=C/CC1` has inhibition at 100 µM that meets 90% or exceeds it?
Result: not met
